target: NAMPT (human, recombinant, C-terminally His-tagged) (Homo sapiens, UniProt P43490); assay: Time-Resolved Fluorescence Resonance Energy Transfer (TR-FRET) Binding Assay of NAMPT; conditions: without substrates; 6.8 nM NAMPT, 200 nM probe, 3 hours equilibration
Sequence (P43490 whole entry): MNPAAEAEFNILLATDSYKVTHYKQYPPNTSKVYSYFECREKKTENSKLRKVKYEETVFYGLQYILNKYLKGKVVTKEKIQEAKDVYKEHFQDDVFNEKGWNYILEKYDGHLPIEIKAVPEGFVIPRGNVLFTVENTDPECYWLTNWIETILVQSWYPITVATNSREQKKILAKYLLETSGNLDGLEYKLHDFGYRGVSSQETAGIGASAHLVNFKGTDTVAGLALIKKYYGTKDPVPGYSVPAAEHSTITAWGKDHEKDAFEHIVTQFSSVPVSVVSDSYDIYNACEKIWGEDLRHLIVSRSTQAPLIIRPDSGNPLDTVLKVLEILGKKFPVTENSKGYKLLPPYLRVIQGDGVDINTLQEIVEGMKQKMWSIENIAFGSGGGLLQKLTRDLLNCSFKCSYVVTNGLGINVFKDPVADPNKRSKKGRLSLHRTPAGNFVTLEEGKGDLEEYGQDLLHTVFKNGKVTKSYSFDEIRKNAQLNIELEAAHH
pIC50: −log10 of the molar value.
recorded.metric: pIC50

{"molecule": "O=C(NCc1ccn2ccnc2c1)c1ccc(-c2ccccc2)s1 [Example 299]", "meas.value": 6.76}
{"molecule": "O=C(NCc1ccn2ccnc2c1)Nc1ncc(C(=O)N2CCCCC2)s1 [Example 404]", "meas.value": 5.59}
{"molecule": "O=C(NCc1ccn2ccnc2c1)c1ccc(C2CCN(C(=O)C3CCCC3)CC2)cc1 [Example 515]", "meas.value": 6.74}

a. O=C(NCc1ccn2ccnc2c1)c1ccc(C2CCN(C(=O)c3cscn3)C2)cc1 (centres unmarked) [Example 588]
b. O=C(NCc1ccc2nccn2c1)c1cnc(N(C[C@H]2CCCO2)C(=O)C2CCOCC2)s1 [Example 147]
Consider entries a and b . Which has the numerically lower pIC50? Answer by quoting the chosen item's label.
a
(a: 6.16, b: 6.60)

a. O=C(NCc1ccn2ccnc2c1)c1ccc(C2CN(C(=O)c3cncs3)C2)cc1 [Example 634]
b. COc1cccc(C(=O)N2CCC(c3ccc(C(=O)NCc4ccn5ccnc5c4)cc3)C2)c1 (centres unmarked) [Example 604]
c. CC(C)Cn1cc(-c2ccc(C(=O)NCc3ccn4ccnc4c3)o2)cn1 [Example 740]
rank_up(items): orders items by reported pIC50 in ascending numerical order. Note for the reader: the ranking is given by listing the labels in the order requested.
a, b, c
